# test name: PET hydrolysis product formed (TPA+MHET+BHET, UV-Vis) per mg enzyme (mmol/mg enzyme); higher = more PET depolymerisation activity; extreme values may be limits of the assay
# measurement context: PET substrate: cryPow; 70 °C; pH 6.5; 2 h
Hi there, I'd appreciate the recorded PET hydrolysis product formed for every entry that follows.
One number for each entry.

Some solved cases for reference:
residues	PET hydrolysis product formed
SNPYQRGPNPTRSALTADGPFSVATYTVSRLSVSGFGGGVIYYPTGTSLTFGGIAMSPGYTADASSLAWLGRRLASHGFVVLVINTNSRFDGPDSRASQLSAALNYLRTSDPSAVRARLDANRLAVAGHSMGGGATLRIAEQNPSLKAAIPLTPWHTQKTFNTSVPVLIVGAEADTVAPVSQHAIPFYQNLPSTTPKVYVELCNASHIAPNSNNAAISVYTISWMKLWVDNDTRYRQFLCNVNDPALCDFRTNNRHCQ [LCC-ICCG DAQI]	0.0286
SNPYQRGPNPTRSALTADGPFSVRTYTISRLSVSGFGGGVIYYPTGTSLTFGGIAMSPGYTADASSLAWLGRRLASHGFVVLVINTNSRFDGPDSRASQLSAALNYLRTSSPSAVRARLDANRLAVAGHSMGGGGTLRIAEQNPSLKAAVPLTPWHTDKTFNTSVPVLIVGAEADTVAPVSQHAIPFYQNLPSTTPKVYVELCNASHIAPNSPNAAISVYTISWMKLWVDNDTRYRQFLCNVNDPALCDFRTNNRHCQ [LCC-ICCG RIP]	0.0257

Proceed to the following item.
Reported PET hydrolysis product formed for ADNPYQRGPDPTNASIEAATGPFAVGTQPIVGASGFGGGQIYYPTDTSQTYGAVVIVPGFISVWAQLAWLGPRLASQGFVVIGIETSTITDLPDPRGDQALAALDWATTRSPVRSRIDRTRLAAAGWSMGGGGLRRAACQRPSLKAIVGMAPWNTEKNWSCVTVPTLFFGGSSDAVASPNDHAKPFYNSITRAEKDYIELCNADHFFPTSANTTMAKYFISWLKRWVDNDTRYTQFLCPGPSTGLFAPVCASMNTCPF [CaPETaseM9] was 0.0134

---

# test name: PET hydrolysis product formed (TPA+MHET+BHET, UV-Vis) per mg enzyme (mmol/mg enzyme); higher = more PET depolymerisation activity; extreme values may be limits of the assay
# measurement context: PET substrate: cryPow; 60 °C; pH 6.5; 2 h
observation type: PET hydrolysis product formed

Some solved cases for reference:
residues	PET hydrolysis product formed
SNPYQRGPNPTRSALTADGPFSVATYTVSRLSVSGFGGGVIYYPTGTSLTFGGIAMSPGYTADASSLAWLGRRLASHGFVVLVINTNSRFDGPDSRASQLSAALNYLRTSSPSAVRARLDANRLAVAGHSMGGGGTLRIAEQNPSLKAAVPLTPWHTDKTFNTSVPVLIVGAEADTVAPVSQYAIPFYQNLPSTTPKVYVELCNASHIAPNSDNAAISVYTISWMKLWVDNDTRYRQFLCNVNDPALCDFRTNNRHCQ [LCC-A2]	0.062
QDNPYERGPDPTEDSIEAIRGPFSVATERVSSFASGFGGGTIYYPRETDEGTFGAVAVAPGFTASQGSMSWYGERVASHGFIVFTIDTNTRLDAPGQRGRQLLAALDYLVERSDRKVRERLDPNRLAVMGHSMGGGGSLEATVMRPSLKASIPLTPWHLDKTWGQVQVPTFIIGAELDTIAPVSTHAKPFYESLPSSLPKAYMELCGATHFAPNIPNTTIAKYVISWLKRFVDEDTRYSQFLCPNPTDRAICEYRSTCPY [Cut190*SS]	0.0096
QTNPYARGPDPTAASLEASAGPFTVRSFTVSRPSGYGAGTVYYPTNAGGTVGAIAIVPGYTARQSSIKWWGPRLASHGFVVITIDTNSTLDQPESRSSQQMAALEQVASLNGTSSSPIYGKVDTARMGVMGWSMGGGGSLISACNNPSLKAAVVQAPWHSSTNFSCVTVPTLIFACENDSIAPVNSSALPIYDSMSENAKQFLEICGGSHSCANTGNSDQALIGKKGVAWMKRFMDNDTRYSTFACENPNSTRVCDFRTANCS [Z1-PETase]	0.0995
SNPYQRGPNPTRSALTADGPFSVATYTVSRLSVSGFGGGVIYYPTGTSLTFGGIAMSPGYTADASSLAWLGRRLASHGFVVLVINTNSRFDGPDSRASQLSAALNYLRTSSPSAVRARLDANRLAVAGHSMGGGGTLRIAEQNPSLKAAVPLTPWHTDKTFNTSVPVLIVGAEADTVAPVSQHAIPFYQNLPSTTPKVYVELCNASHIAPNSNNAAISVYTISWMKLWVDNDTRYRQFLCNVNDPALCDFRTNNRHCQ [LCC-ICCG]	0.045
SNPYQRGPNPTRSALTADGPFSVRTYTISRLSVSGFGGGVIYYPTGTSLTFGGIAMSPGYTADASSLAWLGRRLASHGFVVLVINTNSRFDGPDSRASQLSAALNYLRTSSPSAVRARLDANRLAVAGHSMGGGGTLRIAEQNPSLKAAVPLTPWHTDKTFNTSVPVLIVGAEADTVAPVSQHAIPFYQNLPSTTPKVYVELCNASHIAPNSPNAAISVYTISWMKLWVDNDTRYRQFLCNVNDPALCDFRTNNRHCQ [LCC-ICCG RIP]	0.0304
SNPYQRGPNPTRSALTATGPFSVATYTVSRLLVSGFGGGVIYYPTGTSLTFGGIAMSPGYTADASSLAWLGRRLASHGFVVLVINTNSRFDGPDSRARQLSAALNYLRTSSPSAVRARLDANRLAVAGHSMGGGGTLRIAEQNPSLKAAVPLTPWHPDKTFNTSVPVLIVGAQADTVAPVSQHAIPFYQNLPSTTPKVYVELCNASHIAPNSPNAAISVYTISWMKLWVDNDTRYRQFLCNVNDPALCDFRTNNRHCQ [LCC-ICCG I6M]	0.0457
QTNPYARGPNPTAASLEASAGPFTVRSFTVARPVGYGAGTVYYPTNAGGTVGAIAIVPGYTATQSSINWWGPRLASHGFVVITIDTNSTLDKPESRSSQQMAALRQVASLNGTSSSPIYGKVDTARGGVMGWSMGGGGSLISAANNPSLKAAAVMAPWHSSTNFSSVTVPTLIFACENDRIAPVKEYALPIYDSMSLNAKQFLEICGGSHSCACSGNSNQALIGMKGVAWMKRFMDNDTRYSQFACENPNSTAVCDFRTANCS [HotPETase]	0.106

Proceed to the following item.
Reported PET hydrolysis product formed for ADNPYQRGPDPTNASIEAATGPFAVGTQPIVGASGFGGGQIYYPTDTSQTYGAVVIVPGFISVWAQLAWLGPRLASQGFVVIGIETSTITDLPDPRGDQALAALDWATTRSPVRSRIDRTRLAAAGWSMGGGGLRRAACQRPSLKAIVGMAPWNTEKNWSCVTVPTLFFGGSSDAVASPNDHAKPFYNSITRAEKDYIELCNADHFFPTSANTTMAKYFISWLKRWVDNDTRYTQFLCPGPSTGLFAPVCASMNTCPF [CaPETaseM9] was 0.0384
